test_protocol: Bioavailability determination of KD025HCl in mice (plasma levels after IV or PO)
Format: in vivo
condition_info: male, Swiss albino, mouse, plasma, po, 10 mg/kg, PO 10.00 mg/kg, 2.00 h, read-out: Plasma concentration, Mean
result_type: concentration at 2 h (ng/mL)
Kindly provide the numeric value in ng/mL only, without the unit symbol.

Query string: concentration at 2 h lookup needed for COc1ccc(-c2nnc(Nc3nc4c(OC)nccc4[nH]3)o2)cc1OC [KD025HCl] , thanks.
Result string: 953

----------
test_protocol: Bioavailability determination of KD025HCl in mice (plasma levels after IV or PO)
Type: in vivo
condition_info: male, mouse; PO 10.00 mg/kg, Swiss albino mice, plasma
result_type: AUC(0-inf) (µg·h/mL)
Just the number in µg·h/mL, nothing appended.

Query string: Name the reported AUC(0-inf) value associated with the compound COc1ccc(-c2nnc(Nc3nc4c(OC)nccc4[nH]3)o2)cc1OC [KD025HCl]
Result string: 4.16

----------
test_protocol: Bioavailability determination of KD025HCl in mice (plasma levels after IV or PO)
Assay type: in vivo
condition_info: male, Swiss albino, mouse, plasma, po, 10 mg/kg, PO 10.00 mg/kg, 4.00 h, read-out: Plasma concentration, Mean
result_type: concentration at 4 h (ng/mL)
// return numeric value only (unit: ng/mL, not printed)

Query string: # lookup: concentration at 4 h of COc1ccc(-c2nnc(Nc3nc4c(OC)nccc4[nH]3)o2)cc1OC [KD025HCl]
Result string: 170

----------
test_protocol: Bioavailability determination of KD025HCl in mice (plasma levels after IV or PO)
Format: in vivo
condition_info: male, mouse; PO 10.00 mg/kg, Swiss albino mice, plasma
result_type: Cmax (ng/mL)
Express it in ng/mL; write the number only.

Query string: Give the measured Cmax of COc1ccc(-c2nnc(Nc3nc4c(OC)nccc4[nH]3)o2)cc1OC [KD025HCl] .
Result string: 1910

----------
test_protocol: Bioavailability determination of KD025HCl in mice (plasma levels after IV or PO)
Assay type: in vivo
condition_info: male, mouse; PO 10.00 mg/kg, Swiss albino mice, plasma
result_type: Tmax (min)
Kindly answer with a numeric value in min, unit omitted.

Query string: Quick one: Tmax of COc1ccc(-c2nnc(Nc3nc4c(OC)nccc4[nH]3)o2)cc1OC [KD025HCl] ?
Result string: 30

----------
test_protocol: Bioavailability determination of KD025HCl in mice (plasma levels after IV or PO)
Assay type: in vivo
condition_info: male, mouse, plasma; PO 10.00 mg/kg versus IV 2.00 mg/kg, Swiss albino mice; read-out: Bio availability (% f)
result_type: bioavailability (%)
The reply should be a number in %, with the unit left off.

Query string: bioavailability for COc1ccc(-c2nnc(Nc3nc4c(OC)nccc4[nH]3)o2)cc1OC [KD025HCl] ?
Result string: 27.3

----------
System: HIF-2α transcriptional activity
test_protocol: Hypoxia-responsive element-driven luciferase (HRE-Luc) assay
Assay type: cell-based, human
condition_info: Homo sapiens; 786-0 CCRCC cells stably expressing HRE-Luc, 24 hours treatment
result_type: pIC50
Please treat pIC50 as minus the base-10 logarithm of the molar concentration.

Fc1ccc(-c2nnc(Nc3nc4cnc(Cl)cc4[nH]3)o2)cc1; 4.39
COc1nccc2[nH]c(Nc3nnc(-c4ccc(C(F)(F)F)cc4)o3)nc12; 4.49
COc1ccc(-c2nnc(Nc3nc4c(OC)nccc4[nH]3)o2)cc1F; 5.71
COc1ccc2nc(Nc3nnc(-c4ccc(F)cc4)o3)sc2n1; 4.28
COc1nccc2[nH]c(Nc3nnc(-c4ccc(C)cc4)o3)nc12; 5.04
COc1cccc(-c2nccc3nc(Nc4nnc(-c5ccc(F)cc5)o4)[nH]c23)c1; 4.14
Fc1ccc(-c2nnc(Nc3nc4cncc(N5CCOCC5)c4[nH]3)o2)cc1; 4.79
COc1nccc2[nH]c(Nc3nnc(-c4ccc5c(c4)OCO5)o3)nc12; 5.57

Query string: # get_value(readout='pIC50', item= `COc1nccc2[nH]c(Nc3nnc(-c4ccc(OC5CC5)cc4)o3)nc12` )
Result string: 5.16

Query string: And what about the compound `Fc1ccc(-c2nnc(Nc3nc4ccnc(N5CCOCC5)c4[nH]3)o2)cc1` ?
Result string: 4.99

Query string: // repeat for `Fc1ccc(-c2nnc(Nc3nc4cnc(N5CCOCC5)cc4[nH]3)o2)cc1` and report
Result string: 4.81

Query string: Could you do the same for Fc1ccc(-c2nnc(Nc3nc4cnc(C(F)(F)F)cc4[nH]3)o2)cc1 [KD005HCL] , please?
Result string: 4.79

Query string: Follow-up item: `COc1nccc2[nH]c(Nc3nnc(-c4ccc(F)cc4)o3)nc12`
Result string: 5.81

Query string: Note, next up: `COc1cccc2sc(Nc3nnc(-c4ccc(F)cc4)o3)nc12`
Result string: 5.49

Query string: Please do the same for `COc1ccc(-c2nnc(Nc3nc4c(OC)nccc4[nH]3)o2)cc1OC` as well.
Result string: 5.95

Query string: Now the same for `COc1nccc2[nH]c(Nc3nnc(-c4ccc(C#N)cc4)o3)nc12`
Result string: 5.43
